What pIC50 was measured for each of the following?
# System: PGE2 secretion from activated RAW 264.7 macrophages
# methodSummary: Inhibition of PGE2 in LPS activated macrophages (ELISA)
# Type: cell-based, mouse
# recordedConditions: Mus musculus, RAW264.7; 4 hours after activation, doses 1 μM to 20 μM
Numbers only, as −log10 of the molar value.

List pIC50 for every entry below, keeping the order given.
1. CCCCC(C)(C)c1cc(O)c(C2CC(=O)C3CC2C3(C)C)c(O)c1 (single isomer, unassigned; (-))
2. CCCCCCC(C)(C)c1cc(O)c([C@H]2CC(=O)[C@H]3C[C@@H]2C3(C)C)c(OC(=O)CCC(=O)O)c1
3. CC(C)(CCCCBr)c1cc(O)c(C2CC(=O)C3CC2C3(C)C)c(O)c1 (single isomer, unassigned; (-))
4. CCCCCCC(C)(C)c1cc(O)c(C2CC(=O)C3CC2C3(C)C)c(O)c1 (single isomer, unassigned; (-))
5. CC(C)(CCCCC#N)c1cc(O)c([C@H]2CC(=O)[C@H]3C[C@@H]2C3(C)C)c(O)c1

1: 5.15; 2: 5.05; 3: 5.15; 4: 5.05; 5: 4.74

----------
# Test system: Male Sprague Dawley rats
# methodSummary: Inflammatory pain: carrageenan paw edema in rats, thermal and mechanical stimuli
# Type: in vivo, rat
# recordedConditions: 10 mg/kg i.p., three hours
What ΔLT (thermal stimulus) was measured for each of the following?
One number for each entry, in s.

Examples from the recorded data:
Cc1ccc(-c2cc(C(F)(F)F)nn2-c2ccc(S(N)(=O)=O)cc2)cc1 [Celecoxib, reference compound] :: 0
CC(C(=O)O)c1cccc(C(=O)c2ccccc2)c1 (centres unmarked) [Ketoprofen, reference compound] :: 0
CC(C)(CCCCBr)c1cc(O)c(C2CC(=O)C3CC2C3(C)C)c(O)c1 (single isomer, unassigned; (-)) :: 2
CCCCCCC(C)(C)c1cc(O)c([C@H]2CC(=O)[C@H]3C[C@@H]2C3(C)C)c(OC(=O)CCC(=O)O)c1 :: 0

Turning now to a further record.
Consider O=C(O)Cc1ccccc1Nc1c(Cl)cccc1Cl [Diclofenac, reference compound] . Its measured ΔLT (thermal stimulus) is 0

----------
What CB2/CB1 affinity ratio was measured for each of the following?
# targetUnderTest: human CB2 receptor (Homo sapiens)
# Sequence (P34972 whole entry): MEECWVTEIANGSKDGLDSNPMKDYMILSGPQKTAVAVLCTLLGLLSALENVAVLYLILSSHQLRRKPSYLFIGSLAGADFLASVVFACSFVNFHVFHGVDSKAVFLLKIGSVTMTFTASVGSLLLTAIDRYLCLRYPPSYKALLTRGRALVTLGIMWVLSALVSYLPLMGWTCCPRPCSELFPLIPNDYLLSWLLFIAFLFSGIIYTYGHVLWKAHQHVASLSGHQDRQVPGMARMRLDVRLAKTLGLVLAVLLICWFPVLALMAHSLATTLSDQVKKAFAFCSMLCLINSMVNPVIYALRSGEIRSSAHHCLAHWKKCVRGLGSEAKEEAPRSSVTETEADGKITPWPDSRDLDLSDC
# methodSummary: biochemical
# Format: binding
# Design: purchased Perkin Elmer/NEN; host or cells: CHO cells, stably transfected (membranes)
# recordedConditions: IC50 CB1/IC50 CB2
Numbers only.

Examples from the recorded data:
CCCCCCC(C)(C)c1cc(OC(=O)CCC(=O)O)c([C@H]2CC(=O)[C@H]3C[C@@H]2C3(C)C)c(OC(=O)CCC(=O)O)c1 :: 77
CCCCC(C)(C)c1cc(O)c(C2C=C(COC(=O)C(C)(C)C)[C@H]3C[C@@H]2C3(C)C)c(O)c1 (stereo partly drawn) :: 9.5
CCCCCCC(C)(C)c1cc(O)c(C2CC(=O)[C@H]3C[C@@H]2C3(C)C)c(OC(=O)/C=C/C(=O)O)c1 (single isomer, unassigned; (-)) :: 656
C#CCCCCC(C)(C)c1cc(O)c(C2C=C(C)C3CC2C3(C)C)c(O)c1 (single isomer, unassigned; (+)) :: 33

List CB2/CB1 affinity ratio for every entry below, keeping the order given.
1. CCCCCCC(C)(C)c1cc(O)c(C2CC(O)C3CC2C3(C)C)c(O)c1 (single isomer, unassigned; (-))
2. CCCCCCC(C)(C)c1cc(O)c([C@H]2C/C(=N/O)[C@H]3C[C@@H]2C3(C)C)c(O)c1

1: 9; 2: 27
